# Test system: Listeria innocua
# assay-overview: Minimum inhibitory concentration (MIC), broth microdilution
# Format: cell-based
# test-parameters: Listeria innocua; incubation time 30 h; 10^6 cfu/mL; no visible growth; read-out: Minimum Inhibitory Concentration (MIC) Listeria Innocua
The entries below come with measured MIC values attached.

molecule | MIC
CCOC(=O)CCCCCCC/C=C\CCCCCCC(C)OC1OC(CO)C(O)C(O)C1OC1OC(CO)C(O)C(O)C1O (stereo not shown) [SL Ethyl ester] | 32 µg/mL
CCCCOC(=O)CCCCCCC/C=C\CCCCCCC(C)OC1OC(CO)C(O)C(O)C1OC1OC(CO)C(O)C(O)C1O (stereo not shown) [SL Butyl ester] | 8 µg/mL
CCCOC(=O)CCCCCCC/C=C\CCCCCCC(C)OC1OC(CO)C(O)C(O)C1OC1OC(CO)C(O)C(O)C1O (stereo not shown) [SL Propyl ester] | 25 µg/mL
CC(=O)OCC1OC2OC(C)CCCCCC/C=C\CCCCCCCC(=O)OC3C(COC(C)=O)OC(OC2C(O)C1O)C(O)C3O (stereo not shown) [Lactonic SL, LSL 6′,6″-diacetate, reference compound] | 32 µg/mL
